Where do these numbers come from? They come from paper PMC8143406.

- Assayed System: GST-SXL (Sex-lethal) (UniProt P19339)
- Sequence (P19339 whole entry, looked up): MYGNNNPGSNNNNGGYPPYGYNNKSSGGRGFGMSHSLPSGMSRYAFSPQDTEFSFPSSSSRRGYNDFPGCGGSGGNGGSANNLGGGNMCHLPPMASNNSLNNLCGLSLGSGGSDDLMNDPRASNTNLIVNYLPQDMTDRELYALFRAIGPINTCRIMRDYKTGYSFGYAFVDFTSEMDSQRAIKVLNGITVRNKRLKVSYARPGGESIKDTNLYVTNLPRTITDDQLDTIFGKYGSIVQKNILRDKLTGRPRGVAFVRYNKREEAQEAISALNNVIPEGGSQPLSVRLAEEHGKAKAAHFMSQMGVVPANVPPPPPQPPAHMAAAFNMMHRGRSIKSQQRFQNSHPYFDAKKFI
- Test: EMSA
- Condition Details: EMSA as in cited refs 28 and 40, buffer, salt and pH not stated; GST-SXL at 166, 55 and 18 ng/ul; SELEX binding at 30 C for 30 min in 100 ul
pKd: −log10 of the molar value.

# Residue Sequence, pKd
data = [
    ("UUUUUGUUGUUUUUUUU [tra non-sex-specific polypyrimidine tract/3' splice site RNA]", 9.00),
]

* * *

- Assayed System: GST-SXL (Sex-lethal) (UniProt P19339)
- Sequence (P19339 whole entry, looked up): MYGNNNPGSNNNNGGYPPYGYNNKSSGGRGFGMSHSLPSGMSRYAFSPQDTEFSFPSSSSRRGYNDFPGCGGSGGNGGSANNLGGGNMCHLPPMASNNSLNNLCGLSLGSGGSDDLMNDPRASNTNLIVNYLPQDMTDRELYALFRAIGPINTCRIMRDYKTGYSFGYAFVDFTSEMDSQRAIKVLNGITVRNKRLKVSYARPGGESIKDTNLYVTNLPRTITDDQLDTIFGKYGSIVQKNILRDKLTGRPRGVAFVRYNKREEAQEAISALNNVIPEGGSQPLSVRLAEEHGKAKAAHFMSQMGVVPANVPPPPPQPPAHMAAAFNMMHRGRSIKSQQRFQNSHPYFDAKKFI
- Test: EMSA
- Condition Details: within 2-3-fold of tra Py-tract; EMSA as in cited refs 28 and 40, buffer, salt and pH not stated; GST-SXL at 166, 55 and 18 ng/ul; SELEX binding at 30 C for 30 min in 100 ul
pKd: −log10 of the molar value.
Catalogue of pKd readings, one per entry.

# Residue Sequence, Assayed System, pKd
data = [
    ("UUUUUUUCUUUUUUUUCU [TnI 5' UTR SXL-binding site RNA (cDNA SELEX clone 10-15h_5)]", "GST-SXL (Sex-lethal) (UniProt P19339)", 9.00),
    ("UUUUUUUUUCUUUUUUUUGU [Gs2 3' UTR SXL-binding site RNA (cDNA SELEX clone 10-15h_14)]", "GST-SXL (Sex-lethal) (UniProt P19339)", 9.00),
]
